The measured values listed here are drawn from patent US10757937B2.

# system_under_test: PYL6 (Arabidopsis thaliana, UniProt Q8S8E3)
# Construct: 6X-His; made in house; host or cells: E. coli BL21[DE3]pLysS
# Sequence (Q8S8E3 whole entry, one chain of several): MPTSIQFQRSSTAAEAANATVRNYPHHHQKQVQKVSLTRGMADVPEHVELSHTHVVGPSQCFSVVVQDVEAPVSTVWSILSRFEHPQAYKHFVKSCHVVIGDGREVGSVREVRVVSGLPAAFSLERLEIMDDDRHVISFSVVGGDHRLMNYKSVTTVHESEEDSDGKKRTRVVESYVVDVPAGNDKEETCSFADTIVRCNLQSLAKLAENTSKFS
# assay_summary: receptor-mediated PP2C (HAB1) inhibition in vitro assay
# Assay type: biochemical
# assay_context: Table XII-B; calculated from dose curves; read-out: PP2C Activity (IC50 in uM) PYL6
measured_parameter: IC50

Field: example entries. Status: answers known.
molecule	IC50
CC(C)COC(=O)NS(=O)(=O)Cc1ccc(C#N)cc1 [Compound 65]	> 50 µM
N#Cc1ccc(CS(=O)(=O)NC(=O)C(c2ccc(F)cc2)c2ccc(F)cc2)cc1 [Compound 72]	> 50 µM
O=C(NS(=O)(=O)Cc1ccc(F)cc1)C1(c2ccccc2)CCCCC1 [Compound 64]	> 50 µM

Next, consider the following molecule.
In: What does the record list as IC50 for N#Cc1ccc(CS(=O)(=O)NC(=O)C2(c3ccsc3)CCCCC2)cc1Br [Compound 106] ?
Out: 7.84 µM

* * *

# system_under_test: PYL9 (Arabidopsis thaliana, UniProt Q84MC7)
# Construct: 6X-His; made in house; host or cells: E. coli BL21[DE3]pLysS
# Sequence (Q84MC7 whole entry, one chain of several): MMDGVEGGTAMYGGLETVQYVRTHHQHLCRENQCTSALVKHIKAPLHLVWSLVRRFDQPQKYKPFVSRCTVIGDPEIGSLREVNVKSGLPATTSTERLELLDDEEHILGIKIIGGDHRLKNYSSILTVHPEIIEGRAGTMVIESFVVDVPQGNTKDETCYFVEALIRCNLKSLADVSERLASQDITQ
# assay_summary: receptor-mediated PP2C (HAB1) inhibition in vitro assay
# Type: biochemical
# assay_context: compound at 25 μM; control without agonist = 100%
measured_parameter: PP2C Activity (25 μm) PYL9 (%)
Express your answer in %, writing the number without its unit.

compound	measured_parameter	quantitative_result
N#Cc1ccc(CS(=O)(=O)NC(=O)C2(c3ccc(Cl)cc3)CCC2)cc1 [Compound 28]	PP2C Activity (25 μm) PYL9	37
N#Cc1ccc(CS(=O)(=O)NC(=O)C2(c3ccccc3)CC2)cc1 [Compound 27]	PP2C Activity (25 μm) PYL9	63
COc1ccc(C(C)(C)C(=O)NS(=O)(=O)Cc2ccc(C#N)cc2)cc1 [Compound 22]	PP2C Activity (25 μm) PYL9	92

Next compound, PP2C Activity (25 μm) PYL9 to be filled in.
In: Field request: PP2C Activity (25 μm) PYL9 | item: COc1ccc(C2(C(=O)NS(=O)(=O)Cc3ccc(C#N)cc3)CCCC2)cc1 [Compound 39]
Out: 66

* * *

# system_under_test: PYL6 (Arabidopsis thaliana)
# Construct: 6X-His; made in house; host or cells: E. coli BL21[DE3]pLysS
# assay_summary: receptor-mediated PP2C (HAB1) inhibition in vitro assay
# Type: biochemical
# assay_context: Table VII; read-out: PP2C Dose Curves PYL6 (IC50)
measured_parameter: IC50

molecule	result
CC(C)(C(=O)NS(=O)(=O)Cc1ccc(C#N)cc1)c1ccc(Cl)c(Cl)c1 [Compound 7]	> 50 µM

In: Please give the measured IC50 for this molecule: N#Cc1ccc(CS(=O)(=O)NC(=O)C2(c3ccccc3)CCC2)cc1 [Compound 29]
Out: > 50 µM

* * *

# system_under_test: PYL8 (Arabidopsis thaliana)
# Construct: 6X-His; made in house; host or cells: E. coli BL21[DE3]pLysS
# Sequence (Q9FGM1 1-188): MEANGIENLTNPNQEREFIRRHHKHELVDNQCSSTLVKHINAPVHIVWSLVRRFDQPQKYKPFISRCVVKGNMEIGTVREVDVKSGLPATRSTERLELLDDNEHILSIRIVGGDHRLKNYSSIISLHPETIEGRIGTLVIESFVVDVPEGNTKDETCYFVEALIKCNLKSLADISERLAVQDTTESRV
# Sequence (Q9CAJ0 23-511 partner): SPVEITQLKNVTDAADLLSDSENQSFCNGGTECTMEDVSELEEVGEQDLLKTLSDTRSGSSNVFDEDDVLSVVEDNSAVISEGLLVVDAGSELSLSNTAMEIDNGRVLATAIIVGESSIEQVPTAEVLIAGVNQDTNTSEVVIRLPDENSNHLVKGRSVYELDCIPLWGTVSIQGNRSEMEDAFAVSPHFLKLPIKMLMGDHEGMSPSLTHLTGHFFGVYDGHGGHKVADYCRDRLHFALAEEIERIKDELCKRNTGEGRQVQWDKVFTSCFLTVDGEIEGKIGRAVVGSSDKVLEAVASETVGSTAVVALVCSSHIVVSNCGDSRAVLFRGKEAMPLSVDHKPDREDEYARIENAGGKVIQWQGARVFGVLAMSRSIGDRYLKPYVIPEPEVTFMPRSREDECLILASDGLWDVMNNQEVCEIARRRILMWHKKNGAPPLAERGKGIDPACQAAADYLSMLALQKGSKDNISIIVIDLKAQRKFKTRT
# assay_summary: receptor-mediated PP2C (HAB1) inhibition in vitro assay
# Type: biochemical
# assay_context: Table VII; read-out: PP2C Dose Curves PYL8 (IC50)
pIC50: −log10 of the molar value.
Label no (0) if pIC50 falls below 5; label yes (1) in every other case.

Would you please look over these solved cases?
CC(C)(C(=O)NS(=O)(=O)Cc1ccc(C#N)cc1)c1ccc(F)cc1 yes (1)
Cc1cccc(C2(C(=O)NS(=O)(=O)Cc3ccc(C#N)cc3)CCCC2)c1 no (0)
Cc1ccccc1C1(C(=O)NS(=O)(=O)Cc2ccc(C#N)cc2)CC1 no (0)
CC(C)(C(=O)NS(=O)(=O)Cc1ccc(C#N)cc1)c1ccccc1 no (0)
N#Cc1ccc(CS(=O)(=O)NC(=O)C2(c3ccccc3)CCC2)cc1 yes (1)

Please turn your attention to the following entry.
In: Decide: is the reported value of pIC50 for `N#Cc1ccc(CS(=O)(=O)NC(=O)C2(c3ccc(F)cc3)CCCC2)cc1` equal to or greater than 5?
Out: yes (1)

* * *

# system_under_test: PYL11 (Arabidopsis thaliana)
# Construct: made in house; host or cells: E. coli BL21[DE3]pLysS
# Sequence (Q9FJ50 whole entry, one chain of several): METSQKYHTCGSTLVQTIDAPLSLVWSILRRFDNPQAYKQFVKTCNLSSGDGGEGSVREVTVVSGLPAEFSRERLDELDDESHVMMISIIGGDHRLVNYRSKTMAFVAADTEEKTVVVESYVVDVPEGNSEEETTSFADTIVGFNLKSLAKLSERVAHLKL
# assay_summary: receptor-mediated PP2C (HAB1) inhibition in vitro assay
# Type: biochemical
# assay_context: Table XII-B; calculated from dose curves; read-out: PP2C Activity (IC50 in uM) PYL11
Overview of recorded IC50 for various molecules
Please reply with the bare figure in µM and do not write the unit itself.

Use the examples below as a reference point.
molecule	IC50 / µM
N#Cc1ccc(CS(=O)(=O)NC(=O)C2(c3ccsc3)CCCCC2)cc1Br [Compound 106]	0.065
N#Cc1ccc(CS(=O)(=O)NC(=O)C(C2CCCCC2)C2CCCCC2)cc1 [Compound 73]	22.4

In: IC50 for CC1CCC(C(=O)NS(=O)(=O)Cc2ccc(C#N)cc2)(c2ccc(F)cc2)CC1 (stereo not shown) [Compound 67] ?
Out: 3.13

* * *

Listing of entries alongside the reported remaining activity at 25 µM.
# system_under_test: PYL4 (Arabidopsis thaliana, UniProt O80920)
# Construct: 6X-His; made in house; host or cells: E. coli BL21[DE3]pLysS
# Sequence (O80920 whole entry, one chain of several): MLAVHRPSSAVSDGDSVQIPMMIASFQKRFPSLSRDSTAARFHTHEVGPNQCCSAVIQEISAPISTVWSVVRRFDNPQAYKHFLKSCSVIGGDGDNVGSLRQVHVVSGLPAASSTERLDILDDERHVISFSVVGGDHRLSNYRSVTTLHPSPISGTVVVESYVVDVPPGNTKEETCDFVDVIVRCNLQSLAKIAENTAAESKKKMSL
# assay_summary: receptor-mediated PP2C (HAB1) inhibition in vitro assay
# Assay type: biochemical
# assay_context: compound at 25 μM; control without agonist = 100%
Enter your answer as a number in %; do not include the unit.

molecule	u	remaining activity at 25 µM
CC1(C(=O)NS(=O)(=O)Cc2ccc(C#N)cc2)CCCc2ccccc21 (centres unmarked)	%	91
N#Cc1ccc(CS(=O)(=O)NC(=O)C2(c3ccc(F)cc3)CCCCC2)cc1	%	93
N#Cc1ccc(CS(=O)(=O)NC(=O)C2(c3ccc(F)cc3)CCC2)cc1	%	92
N#Cc1ccc(CS(=O)(=O)NC(=O)C2(c3ccccc3F)CCCC2)cc1	%	94

With those in mind, consider the next molecule.
In: Field request: remaining activity at 25 µM | item: `CC(C)(C(=O)NS(=O)(=O)Cc1ccc(C#N)cc1)c1cccc(C#N)c1`
Out: 91

* * *

# system_under_test: PYL1 (Arabidopsis thaliana)
# Construct: 6X-His; made in house; host or cells: E. coli BL21[DE3]pLysS
# Sequence (Q8VZS8 whole entry, one chain of several): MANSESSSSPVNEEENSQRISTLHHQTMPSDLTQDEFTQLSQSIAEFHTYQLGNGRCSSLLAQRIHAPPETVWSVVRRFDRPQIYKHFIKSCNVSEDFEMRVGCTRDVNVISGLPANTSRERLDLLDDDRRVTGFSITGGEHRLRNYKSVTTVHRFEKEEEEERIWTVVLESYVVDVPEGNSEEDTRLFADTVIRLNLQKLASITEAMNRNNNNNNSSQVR
# assay_summary: receptor-mediated PP2C (HAB1) inhibition in vitro assay
# Assay type: biochemical
# assay_context: 50 uM of the test compound
measured_parameter: remaining activity at 50 µM (%)
Output spec: scalar in %, unitless text.

Known remaining activity at 50 µM results, listed for orientation:
compound	remaining activity at 50 µM (%)
N#Cc1ccc(CS(=O)(=O)NC(=O)C(C2CCCCC2)C2CCCCC2)cc1 [Compound 73]	95.5
N#Cc1ccc(CS(=O)(=O)NC(=O)C2(c3ccsc3)CCCCC2)cc1 [Compound 78]	95.6

// next item, remaining activity at 50 µM requested
In: Recorded remaining activity at 50 µM of CC1CCC(C(=O)NS(=O)(=O)Cc2ccc(C#N)cc2)(c2ccc(F)cc2)CC1 (stereo not drawn) [Compound 67] , please.
Out: 98.3

* * *

Listing of recorded remaining activity at 50 µM by entry.
# system_under_test: PYL5 (Arabidopsis thaliana)
# Construct: 6X-His; made in house; host or cells: E. coli BL21[DE3]pLysS
# Sequence (Q9FLB1 whole entry, one chain of several): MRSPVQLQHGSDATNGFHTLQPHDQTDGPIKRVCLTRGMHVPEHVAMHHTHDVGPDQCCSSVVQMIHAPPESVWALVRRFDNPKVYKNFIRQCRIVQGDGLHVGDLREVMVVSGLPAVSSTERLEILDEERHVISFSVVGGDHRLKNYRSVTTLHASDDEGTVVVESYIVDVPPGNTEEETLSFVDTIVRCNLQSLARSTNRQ
# assay_summary: receptor-mediated PP2C (HAB1) inhibition in vitro assay
# Format: biochemical
# assay_context: 50 uM of the test compound
# unit: % | format: bare number

In: Tell me the measured remaining activity at 50 µM of N#Cc1ccc(CS(=O)(=O)NC(=O)C(c2ccccc2)c2ccccc2)cc1 [Compound 71] , please.
Out: 102

In: Requested field: remaining activity at 50 µM. Item: N#Cc1ccc(CS(=O)(=O)NC(=O)C2(c3cccs3)CCCCC2)cc1 [Compound 75]
Out: 81.8

In: // lookup remaining activity at 50 µM for N#Cc1ccc(CS(=O)(=O)NC(=O)C2(c3ccccc3)CCCCC2)cc1 [Compound 69]
Out: 119

In: Return reported remaining activity at 50 µM; argument: CC1CCC(C(=O)NS(=O)(=O)Cc2ccc(C#N)cc2)(c2ccc(F)cc2)CC1 (stereo not shown) [Compound 67]
Out: 43
